Data origin: ChEMBL document CHEMBL1138572

- TESTED_SYSTEM: Adrenergic receptor alpha-1 (Rattus norvegicus, UniProt P15823+P23944+P43140)
- PROCEDURE_DETAILS: Antagonist activity at alpha1 adrenoceptor in Sprague-Dawley rat aorta assessed as inhibition of norepinephrine-induced contraction treated 30 mins before norepinephrine challenge
QUANTITY: pA2

{"columns": ["MOLECULE", "pA2"],
 "data": [
  ["COc1cc2c(cc1OC)C(Cc1ccccc1)N(CCOc1ccccc1)CC2 (stereo not drawn)", 8.23],
  ["O=[N+]([O-])c1ccccc1C1c2ccccc2CCN1CCOc1ccccc1 (stereo not drawn)", 7.94],
  ["COc1ccc2c(c1)C(c1ccccc1[N+](=O)[O-])N(CCOc1ccccc1)CC2 (stereo not drawn)", 8.11]
]}
